testDescription: Growth inhibition of human MCF7 cells at 10 to 150 ug/ml after 24 hrs by MTT assay relative to control
Assay type: functional
observationType: growth inhibition (GI)

>  <querySmiles>
Oc1ccc2nc(-c3cccc(Oc4ccccc4)c3)cc(-c3ccccc3)c2c1

>  <observedResult>
72.56%

$$$$
>  <querySmiles>
Brc1ccc2nc(-c3cccc(Oc4ccccc4)c3)cc(-c3ccccc3)c2c1

>  <observedResult>
30.81%

$$$$
>  <querySmiles>
Clc1ccc2nc(-c3cccc(Oc4ccccc4)c3)cc(-c3ccccc3)c2c1

>  <observedResult>
32.14%

$$$$
>  <querySmiles>
N#Cc1ccc2nc(-c3cccc(Oc4ccccc4)c3)cc(-c3ccccc3)c2c1

>  <observedResult>
70.64%

$$$$
>  <querySmiles>
COc1cccc2c1C(=O)c1c(O)c3c(c(O)c1C2=O)C[C@@](O)(C(=O)CO)C[C@@H]3O[C@H]1C[C@H](N)[C@H](O)[C@H](C)O1

>  <observedResult>
71.56%

$$$$
>  <querySmiles>
Fc1ccc2nc(-c3cccc(Oc4ccccc4)c3)cc(-c3ccccc3)c2c1

>  <observedResult>
60.25%

$$$$
>  <querySmiles>
Oc1c(Cl)cc2nc(-c3cccc(Oc4ccccc4)c3)cc(-c3ccccc3)c2c1Cl

>  <observedResult>
73.17%

$$$$
>  <querySmiles>
Cc1cc2nc(-c3cccc(Oc4ccccc4)c3)cc(-c3ccccc3)c2cc1C

>  <observedResult>
48.34%

$$$$
>  <querySmiles>
COc1ccc2nc(-c3cccc(Oc4ccccc4)c3)cc(-c3ccccc3)c2c1

>  <observedResult>
74.49%

$$$$

----------
systemName: DNA gyrase subunit A (Staphylococcus aureus, UniProt P20831)
Sequence (P20831 whole entry): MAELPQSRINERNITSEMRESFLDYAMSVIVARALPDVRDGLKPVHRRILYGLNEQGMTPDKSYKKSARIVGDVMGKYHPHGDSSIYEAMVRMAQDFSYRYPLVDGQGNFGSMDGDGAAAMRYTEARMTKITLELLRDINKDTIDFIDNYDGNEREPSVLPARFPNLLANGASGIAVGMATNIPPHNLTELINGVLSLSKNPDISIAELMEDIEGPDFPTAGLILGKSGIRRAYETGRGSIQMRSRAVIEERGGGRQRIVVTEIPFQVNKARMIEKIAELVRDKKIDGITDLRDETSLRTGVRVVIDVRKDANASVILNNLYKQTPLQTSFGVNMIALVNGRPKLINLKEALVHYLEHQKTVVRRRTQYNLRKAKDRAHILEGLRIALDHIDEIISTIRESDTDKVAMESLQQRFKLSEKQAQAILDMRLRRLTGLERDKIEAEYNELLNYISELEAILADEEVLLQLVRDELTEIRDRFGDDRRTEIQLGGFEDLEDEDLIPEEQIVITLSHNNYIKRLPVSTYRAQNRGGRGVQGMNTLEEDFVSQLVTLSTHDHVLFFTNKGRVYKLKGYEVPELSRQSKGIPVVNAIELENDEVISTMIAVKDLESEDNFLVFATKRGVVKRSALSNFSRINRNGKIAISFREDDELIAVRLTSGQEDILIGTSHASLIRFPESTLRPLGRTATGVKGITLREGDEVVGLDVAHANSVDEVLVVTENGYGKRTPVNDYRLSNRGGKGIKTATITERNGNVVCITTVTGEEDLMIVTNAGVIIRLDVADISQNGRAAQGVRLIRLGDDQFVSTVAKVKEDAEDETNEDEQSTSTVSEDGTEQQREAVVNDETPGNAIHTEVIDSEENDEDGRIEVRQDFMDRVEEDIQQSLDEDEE
testDescription: Inhibition of Staphylococcus aureus DNA gyrase A expressed in Escherichia coli BL21(DE3) using relaxed pBR322 DNA as substrate incubated for 1 hr by bromophenol blue dye based agarose gel electrophoresis method
observationType: IC50

>  <querySmiles>
Clc1ccc2nc(-c3cccc(Oc4ccccc4)c3)cc(-c3ccccc3)c2c1

>  <systemName>
DNA gyrase subunit A (Staphylococcus aureus, UniProt P20831)

>  <observedResult>
525 to 11300 nM

$$$$
>  <querySmiles>
Brc1ccc2nc(-c3cccc(Oc4ccccc4)c3)cc(-c3ccccc3)c2c1

>  <systemName>
DNA gyrase subunit A (Staphylococcus aureus, UniProt P20831)

>  <observedResult>
473 to 10200 nM

$$$$
>  <querySmiles>
Oc1c(Cl)cc2nc(-c3cccc(Oc4ccccc4)c3)cc(-c3ccccc3)c2c1Cl

>  <systemName>
DNA gyrase subunit A (Staphylococcus aureus, UniProt P20831)

>  <observedResult>
467 nM

$$$$
>  <querySmiles>
N#Cc1ccc2nc(-c3cccc(Oc4ccccc4)c3)cc(-c3ccccc3)c2c1

>  <systemName>
DNA gyrase subunit A (Staphylococcus aureus, UniProt P20831)

>  <observedResult>
537 to 11600 nM

$$$$
>  <querySmiles>
COc1ccc2nc(-c3cccc(Oc4ccccc4)c3)cc(-c3ccccc3)c2c1

>  <systemName>
DNA gyrase subunit A (Staphylococcus aureus, UniProt P20831)

>  <observedResult>
530 to 11500 nM

$$$$
>  <querySmiles>
CO[C@@H]1[C@@H](OC(=O)c2ccc(C)[nH]2)[C@@H](O)[C@H](Oc2ccc3c(O)c(NC(=O)c4ccc(O)c(CC=C(C)C)c4)c(=O)oc3c2Cl)OC1(C)C

>  <systemName>
DNA gyrase subunit A (Staphylococcus aureus, UniProt P20831)

>  <observedResult>
930 nM

$$$$
>  <querySmiles>
Cc1cc2nc(-c3cccc(Oc4ccccc4)c3)cc(-c3ccccc3)c2cc1C

>  <systemName>
DNA gyrase subunit A (Staphylococcus aureus, UniProt P20831)

>  <observedResult>
533 to 11500 nM

$$$$
>  <querySmiles>
Oc1ccc2nc(-c3cccc(Oc4ccccc4)c3)cc(-c3ccccc3)c2c1

>  <systemName>
DNA gyrase subunit A (Staphylococcus aureus, UniProt P20831)

>  <observedResult>
842 to 1070 nM

$$$$
>  <querySmiles>
Fc1ccc2nc(-c3cccc(Oc4ccccc4)c3)cc(-c3ccccc3)c2c1

>  <systemName>
DNA gyrase subunit A (Staphylococcus aureus, UniProt P20831)

>  <observedResult>
912 to 994 nM

$$$$
